Target: T1, SARS-CoV-2 S1-RBD (Wuhan) (SARS-CoV-2 (Wuhan), UniProt P0DTC2 319-541)
T1 construct: domain: S1-RBD
Assay: sandwich ELISA: biotin NRCoV2-02 VHH capture, antigen titrated, VHH-Fc detector
Parameter measured: SC50 (ng/mL)
Report the figure in ng/mL without appending any unit label.

The binder identified as NRCoV2-07 VHH-Fc (Fc fusion, bivalent VHH-Fc) QVQLVQSGGGLVQPGGSLRLSCAASGVTLDYYAIGWFRQAPGKEREAVSCISSNGRRNHYVASVRGRFTISRDNAKSTVYLQMNSLKPEDTAVYYCAAVQDVHGDNYYCTSPNEYNVWGQGTQVTVSS registered its SC50 at 0.7

The binder identified as NRCoV2-11 VHH-Fc (Fc fusion, bivalent VHH-Fc) EVQLVSSGGGLVQPGGSLRLSCAASGSSLDSYSVSWFRQAPGKEREWISFISRYYSSTYYTDSVKGRFTTSRDGDQKTVHLQMNSLKPEDTAVYYCAARSRDFSSPFSATDTYTSWGQGTQVTVSS registered its SC50 at 0.8

The binder identified as NRCoV2-04 VHH-Fc (Fc fusion, bivalent VHH-Fc) AVQLVDSGGGLVQPGGSLRLSCAASGSPFSNVVMAWYRQAPGKQRERVAFISGGGIADYIMSVKGRFTISRDNAKNTVYLQMNSLKPEDTAVYYCWSSYESTWGQGTQVTVSS registered its SC50 at 3.3

The binder identified as NRCoV2-1d VHH-Fc (Fc fusion, bivalent VHH-Fc) EVQLVESGGGSVQPGGSLRLSCAASGSTLDYYAIGWFRQAPGKEREWVSSVSSSDGNTLYADSVKGRFTISRDNAKNTVYLQMNSLKAEDTAVYVCAADYSMRPFAVGRWHRDYEYWGQGTQVTVSS registered its SC50 at 1.7

Measured values drawn from patent US20240270826A1 for this set.
